test system: MDA-MB-231 invasive mammary malignancy; experiment: SRB antiproliferative assay; type: cell-based, human; conditions: Homo sapiens, MDA-MB-231, 72 h, read-out: Cytotoxicity (as of %control) IC50 value, MDA-MB-231 invasive mammary malignancy
observed property: pIC50
Answers are plain numbers, as −log10 of the molar value.

What value of pIC50 has been recorded for this entry: `COc1ccccc1/C=N/NC(=S)N/N=C/c1ccccc1OC`
4.53

###

system: MDA-MB-453 invasive mammary malignancy; assay: SRB antiproliferative assay; type: cell-based, human; settings: Homo sapiens, MDA-MB-453, 72 h, read-out: Cytotoxicity (as of %control) IC50 value, MDA-MB-453 invasive mammary malignancy
observed property: IC50

Form field - read-out: IC50; system: MDA-MB-453 invasive mammary malignancy; submitted item: `COc1ccc(/C=N/NC(=S)N/N=C/c2ccc(OC)cc2)cc1`
> 200 µM

###

system: MDA-MB-453 invasive mammary malignancy; assay: SRB antiproliferative assay; assay type: cell-based, human; settings: 72 h incubations; 3.125-200µM range; mean ± SD n = 4; read-out: Cytotoxicity (as of %control) IC50 value, MDA-MB-453 invasive mammary malignancy
observed property: pIC50
Give bare numbers, as −log10 of the molar value.

May I ask what pIC50 has been recorded for N.N.[Cl][Pt][Cl] [Cisplatin, reference compound] ?
5.01

###

System: PANC1 pancreatic cell line
Assay: SRB antiproliferative assay
Assay type: cell-based, human
Settings: Homo sapiens, PANC-1, 72 h; read-out: Cytotoxicity (as of %control) IC50 value, PANC1
Experimental: All malignancy cell lines were cultured in high glucose DMEM (Bio Whittaker, Verviers, Belgium) containing 10% FBS, 4-(2-hydroxyethyl)-1-piperazineethanesulfonic acid (HEPES) Buffer (10 mM), L-glutamine (2 mM), gentamicin (50 µg/mL), penicillin (100 U/mL), and streptomycin sulfate ([…]) from Sigma (St. Luis, MO, USA) whereas Sulforhodamine B was from Santa Cruz Biotechnology (Inc. Texas, USA). […]
observed property: pIC50
Give bare numbers, as −log10 of the molar value.

I have this compound here, COc1ccccc1/C=N/NC(=S)N/N=C/c1ccccc1OC [L1] , and I need its recorded pIC50.
4.18

###

system: MDA-MB-231 invasive mammary malignancy; assay: SRB antiproliferative assay; format: cell-based, human; conditions: read-out: Cytotoxicity (as of %control) IC50 value, MDA-MB-231 invasive mammary malignancy; 72 h incubations; 3.125-200 µM range; mean ± SD n = 4
observed property: IC50 (µM)
Answers are plain numbers, in µM.

For the molecule N.N.[Cl][Pt][Cl] [Cisplatin, reference compound] , what IC50 is on record?
11.8

###

test system: A549 lung malignancy; experiment: SRB antiproliferative assay; assay type: cell-based, human; conditions: 72 h incubations; 3.125-200µM range; mean ± SD n = 4; read-out: Cytotoxicity (as of %Control) IC50 value, A549 lung malignancy
observed property: pIC50
One number for each entry, as −log10 of the molar value.

Quick one: pIC50 for N.N.[Cl][Pt][Cl] [Cisplatin, reference compound] ?
4.14

###

test system: SW480 colorectal cancer cell line; experiment: SRB antiproliferative assay; format: cell-based, human; settings: Homo sapiens, SW480, 72 h; read-out: Cytotoxicity (as of %control) IC50 value, SW480
Hi there, I'd appreciate the recorded pIC50 for every entry that follows.
Answers are plain numbers, as −log10 of the molar value.

{"compound": "COc1ccccc1/C=N/NC(=S)N/N=C/c1ccccc1OC [L1]", "pIC50": 5.27}

Returns the measured pIC50 for the input compound. Input: COc1ccc(/C=N/NC(=S)N/N=C/c2ccc(OC)cc2)cc1 [L2]
4.29
